Origin of measurements: the Immune Epitope Database (IEDB)

- measured.target: HLA-A*02:19
- protocol: IEDB peptide-MHC binding, purified MHC/direct/fluorescence; filed as Kd, often an IC50 or EC50 that approximates it; bounds were set here for any values at or beyond the usual limits of such assays
- protocol.conditions: source organism: Reston ebolavirus

[
  {
    "biopolymer.sequence": "WFQRIPLQW",
    "Kd": "≥ 20 µM"
  }
]

---

- measured.target: HLA-B*46:01
- protocol: IEDB peptide-MHC binding, purified MHC/competitive/fluorescence; filed as Kd, often an IC50 or EC50 that approximates it; bounds were set here for any values at or beyond the usual limits of such assays
- protocol.conditions: source organism: Bacillus anthracis str. A2012
pKd: −log10 of the molar value.
experimental.readout: pKd

[
  {
    "biopolymer.sequence": "KKNHWFILK",
    "experimental.readout": "pKd",
    "reported.value": "≤ 4.70"
  }
]

---

- measured.target: HLA-A*11:01
- protocol: IEDB peptide-MHC binding, purified MHC/competitive/radioactivity; bounds were set here for any values at or beyond the usual limits of such assays
- protocol.conditions: source organism: Rhinovirus C
experimental.readout: IC50

[
  {
    "biopolymer.sequence": "KYFNINYYK",
    "measured.target": "HLA-A*11:01",
    "reported.value": "0.2 µM"
  }
]

---

- measured.target: HLA-A*68:02
- protocol: IEDB peptide-MHC binding, purified MHC/competitive/radioactivity; filed as Kd, often an IC50 or EC50 that approximates it; bounds were set here for any values at or beyond the usual limits of such assays
- protocol.conditions: source organism: Hepatitis C virus (isolate 1)
pKd: −log10 of the molar value.
experimental.readout: pKd

[
  {
    "biopolymer.sequence": "ATDALMTGY",
    "reported.value": "≤ 4.16"
  }
]

---

Entries annotated with measured pKd
- measured.target: HLA-A*01:01
- protocol: IEDB peptide-MHC binding, purified MHC/direct/fluorescence; filed as Kd, often an IC50 or EC50 that approximates it; bounds were set here for any values at or beyond the usual limits of such assays
- protocol.conditions: source organism: Brucella abortus 2308
pKd: −log10 of the molar value.

[
  {
    "biopolymer.sequence": "KRASGDPYF",
    "pKd": "≤ 4.70"
  },
  {
    "biopolymer.sequence": "IEVKFHPIL",
    "pKd": "≤ 4.70"
  }
]

---

- measured.target: HLA-A*29:02
- protocol: IEDB peptide-MHC binding, purified MHC/competitive/fluorescence; filed as Kd, often an IC50 or EC50 that approximates it; bounds were set here for any values at or beyond the usual limits of such assays
- protocol.conditions: source organism: Listeria monocytogenes J0161
experimental.readout: Kd

[
  {
    "biopolymer.sequence": "YNAKRIETV",
    "experimental.readout": "Kd",
    "reported.value": "≥ 20 µM"
  }
]

---

# pKd listing for each entry below
- measured.target: HLA-B*40:01
- protocol: IEDB peptide-MHC binding, purified MHC/competitive/radioactivity; filed as Kd, often an IC50 or EC50 that approximates it; bounds were set here for any values at or beyond the usual limits of such assays
- protocol.conditions: source organism: Dengue virus 3 Martinique/1243/1999
pKd: −log10 of the molar value.

[
  {
    "biopolymer.sequence": "YENLKYTVII",
    "pKd": 8.55
  },
  {
    "biopolymer.sequence": "METLLLLGLM",
    "pKd": 5.99
  }
]
